Reference source for all entries: patent US20230211003A1

System: HDV
Experiment: microbe, parasite or virus in culture
Type: cell-based, hepatitis D virus (HDV)
Conditions: HDV infection, Huh7-hNTCP cells, in-cell ELISA; FIGS. 3, 4 and 5 (genotype B sequence); read-out: IC50
observation-type: IC50 (µM)
Give the quantity in µM, number only.

# input Consider the molecule shown here: "C[C@H](CCC(=O)O)[C@H]1CC[C@H]2[C@@H]3[C@@H](O)C[C@@H]4C[C@H](O)CC[C@]4(C)[C@H]3CC[C@]12C" What is its recorded IC50?
# output 79
